Reference for the values: PubChem BioAssay

# TARGET_ENTITY: Neurogenic locus notch homolog protein 2 (Homo sapiens) (UniProt Q04721)
# Sequence (Q04721 whole entry, looked up): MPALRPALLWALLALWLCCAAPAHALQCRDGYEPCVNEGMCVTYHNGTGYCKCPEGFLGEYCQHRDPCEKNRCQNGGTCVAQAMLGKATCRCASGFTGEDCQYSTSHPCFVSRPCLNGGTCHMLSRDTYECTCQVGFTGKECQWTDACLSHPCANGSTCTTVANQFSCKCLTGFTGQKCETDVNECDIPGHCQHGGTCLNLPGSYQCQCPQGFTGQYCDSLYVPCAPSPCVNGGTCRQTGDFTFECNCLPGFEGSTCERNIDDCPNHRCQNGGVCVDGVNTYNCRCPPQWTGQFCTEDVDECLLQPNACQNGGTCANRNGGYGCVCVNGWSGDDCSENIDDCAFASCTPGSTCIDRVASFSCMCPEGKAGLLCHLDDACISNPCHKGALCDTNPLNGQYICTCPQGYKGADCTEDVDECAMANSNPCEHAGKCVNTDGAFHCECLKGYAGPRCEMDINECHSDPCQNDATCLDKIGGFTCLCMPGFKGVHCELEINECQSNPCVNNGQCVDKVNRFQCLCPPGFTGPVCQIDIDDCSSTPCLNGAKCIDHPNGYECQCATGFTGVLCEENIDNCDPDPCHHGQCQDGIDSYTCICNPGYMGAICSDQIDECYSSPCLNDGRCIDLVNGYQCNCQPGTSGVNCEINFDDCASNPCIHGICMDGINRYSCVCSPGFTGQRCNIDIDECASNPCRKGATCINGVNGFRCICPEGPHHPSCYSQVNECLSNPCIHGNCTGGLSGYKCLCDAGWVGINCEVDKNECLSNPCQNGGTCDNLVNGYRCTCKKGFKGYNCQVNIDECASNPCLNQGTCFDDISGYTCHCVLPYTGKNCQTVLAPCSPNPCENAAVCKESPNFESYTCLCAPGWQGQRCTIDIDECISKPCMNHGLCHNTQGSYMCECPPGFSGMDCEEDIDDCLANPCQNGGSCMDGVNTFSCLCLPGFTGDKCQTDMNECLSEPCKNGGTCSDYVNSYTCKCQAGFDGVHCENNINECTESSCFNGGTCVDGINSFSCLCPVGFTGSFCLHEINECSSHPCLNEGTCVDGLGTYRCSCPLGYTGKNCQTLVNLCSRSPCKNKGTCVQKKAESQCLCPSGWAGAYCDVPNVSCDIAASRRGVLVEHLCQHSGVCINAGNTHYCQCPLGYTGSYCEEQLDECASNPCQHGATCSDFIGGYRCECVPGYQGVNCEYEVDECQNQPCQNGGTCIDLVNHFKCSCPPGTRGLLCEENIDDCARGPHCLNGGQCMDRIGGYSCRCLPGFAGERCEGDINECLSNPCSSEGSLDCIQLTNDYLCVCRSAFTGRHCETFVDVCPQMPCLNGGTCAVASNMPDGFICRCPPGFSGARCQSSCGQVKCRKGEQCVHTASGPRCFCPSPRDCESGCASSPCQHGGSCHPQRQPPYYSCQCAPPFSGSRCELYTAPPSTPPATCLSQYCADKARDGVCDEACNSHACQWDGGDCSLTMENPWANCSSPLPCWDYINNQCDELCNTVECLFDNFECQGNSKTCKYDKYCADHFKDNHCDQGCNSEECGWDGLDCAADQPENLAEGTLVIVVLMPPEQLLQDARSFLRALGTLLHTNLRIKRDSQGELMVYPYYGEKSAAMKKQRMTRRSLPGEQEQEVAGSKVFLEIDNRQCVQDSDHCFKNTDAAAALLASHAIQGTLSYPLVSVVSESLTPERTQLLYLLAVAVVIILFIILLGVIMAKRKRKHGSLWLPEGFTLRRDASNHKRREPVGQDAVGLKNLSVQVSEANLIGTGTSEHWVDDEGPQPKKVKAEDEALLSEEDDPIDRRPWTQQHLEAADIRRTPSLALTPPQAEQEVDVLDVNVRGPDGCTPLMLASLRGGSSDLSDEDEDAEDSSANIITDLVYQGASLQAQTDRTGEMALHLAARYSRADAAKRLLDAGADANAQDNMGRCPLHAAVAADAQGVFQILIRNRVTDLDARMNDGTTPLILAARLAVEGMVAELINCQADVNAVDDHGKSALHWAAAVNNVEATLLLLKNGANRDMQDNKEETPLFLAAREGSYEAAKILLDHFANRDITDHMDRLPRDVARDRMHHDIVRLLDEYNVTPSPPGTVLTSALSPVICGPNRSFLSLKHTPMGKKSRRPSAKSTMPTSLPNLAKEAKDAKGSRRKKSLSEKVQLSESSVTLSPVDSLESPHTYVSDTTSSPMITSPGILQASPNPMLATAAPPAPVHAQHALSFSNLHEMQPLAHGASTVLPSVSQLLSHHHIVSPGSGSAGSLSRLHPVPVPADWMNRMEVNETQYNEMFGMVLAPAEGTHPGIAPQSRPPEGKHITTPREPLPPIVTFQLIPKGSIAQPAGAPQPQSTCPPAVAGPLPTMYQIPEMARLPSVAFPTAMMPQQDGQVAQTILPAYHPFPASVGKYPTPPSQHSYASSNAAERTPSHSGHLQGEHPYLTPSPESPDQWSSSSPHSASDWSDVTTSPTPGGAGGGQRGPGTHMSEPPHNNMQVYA
# ASSAY_OVERVIEW: Notch2 binders on small-molecule microarrays, primary screen, biochemical, small-molecule microarray, 635 nm fluorescence, stem cell growth factors (AID 1073)
# CONDITION_PARAMETERS: Notch2 binding, higher = more signal
Classify by measured composite z-score: 1.0 if it is equal to or exceeds -0.03, 0.0 if it is smaller.

Past entries and their recorded results:
O=C1O[C@H](c2ccccc2)[C@H](c2ccccc2)N2[C@H]1[C@@H](C(=O)NC[C@H](O)c1ccccc1)[C@]1(C(=O)Nc3ccc(C#CC4=CCCCC4)cc31)[C@H]2c1ccc(OCCO)cc1 ... 1.0
CCOC(=O)C[C@H]1[C@H](OC(=O)Cc2ccc3c(c2)OCO3)[C@@H](NC(=O)CC(C)C)c2cc(OCCCO)ccc2N1C(=O)c1ccccc1 ... 1.0
CC(C)(C)OC(=O)CC[C@@]1(C(=O)NCc2ccccc2)N=C(c2ccc(OCCCO)cc2)O[C@@H]1c1ccccc1 ... 1.0
C=CC[C@@]1(C(=O)NCC(O)CO)N=C(c2ccc(OCCCO)cc2)O[C@@H]1c1ccccc1CN=[N+]=[N-] (some centres undefined) ... 1.0
Cc1ccc(N2C(=O)c3ccccc3[C@](C)(C(=O)NCC(C)C)[C@@H]2c2ccc(CO)cc2)nc1 ... 0.0

IN: Hi, just wondering whether C=CCC(OC(C)=O)[C@@H]1[C@@H](N(Cc2ccc(-c3cccc(C(F)(F)F)c3)o2)C(=O)Cc2ccc(F)cc2)c2cc(OCCCO)ccc2N1C(=O)c1ccc(-c2ccccc2)cc1 (some centres undefined) shows composite z-score of -0.03 or higher.
OUT: 0.0

IN: Tell me whether composite z-score is at least -0.03 here: Cc1ccccc1C(O)C1C=CC2C(=O)N(c3ccccc3)C(=O)C2N1Nc1ccc(C#N)cc1 (centres undefined)
OUT: 1.0

IN: Check if composite z-score >= -0.03 (inclusive). Item: C[C@H]1COC(=O)[C@@H]2CCCN2C(=O)[C@@H](C)COC(=O)[C@@H]2CCCN2C1=O
OUT: 1.0

IN: Record CC(C)[Si]1(C(C)C)O[C@@H](c2ccccc2)c2cc(C3CC3)nc(-c3ccc(Oc4ccccc4)cc3)c21 ; criterion: composite z-score no lower than -0.03. Met?
OUT: 0.0

IN: Does COCCOC(=O)N1C(=O)[C@@]2(c3cc(C#CCNC(N)=O)ccc31)[C@H](c1ccc(OCCO)cc1)N1[C@H](c3ccccc3)[C@H](c3ccccc3)OC(=O)[C@H]1[C@@H]2C(=O)N1CCCCCCC1 have a reported composite z-score of at least -0.03?
OUT: 1.0
